system: NCI-H23 lung; assay: NCI-60 one-dose screen, 48 h (100 = growth as untreated, 0 = no growth, -100 = all killed); conditions: 10 µM unless noted
This is part of a sample that, as a whole, favours compounds with a hit. Of some 83,000 tested, about 20% had one in any assay.
Would you kindly list growth for each of these molecules?
Please state the figure in %; there is no need to write the unit.

Any idea what its growth is? The molecule is CNC(=O)c1cc(Oc2ccc3nc(NC(=O)Nc4ccc(F)cc4F)sc3c2)ccn1
47

How about this molecule: COc1ccc(-c2cn(Cc3ccc4c(Br)cc(Br)c(O)c4n3)nn2)cc1
95.5

Now give it for Cc1ccc2nc(/C=C/c3ccc(N(C)C)cc3)cc(C)c2c1 too.
42.1

How about this molecule: COc1cc(NC(=O)c2cncnc2Nc2ccc3c(ccn3Cc3cccc(F)c3)c2)cc(OC)c1
79.1

Another: COc1ccc(-c2ccc(-c3ccc(C(=N)N)o3)o2)cc1
35.6

====

system: U251 CNS; assay: NCI-60 one-dose screen, 48 h (100 = growth as untreated, 0 = no growth, -100 = all killed); settings: 10 µM unless noted
About 83,000 compounds went through this panel and 20% of them were active in at least one assay; those are over-represented in the sample as a whole.
Measured property: growth (%)
Give just the numeric value; % need not be written.

For the molecule CO[C@]12C=C/C(=C(/C(=O)OCc3cccnc3)C(=O)CCCCCCCC[C@]3(OC)C=C/C(=C(/C(=O)OCc4cccnc4)C(=O)CCCCCCCC1)O3)O2 , what growth is on record?
-64.2

What would you report for CCCN1C(=O)N(CCC)C2C1NC(=S)N2/N=C/C=C/c1ccccc1OC (stereo not drawn) ?
11.9

Try O=[N+]([O-])c1ccc(N/N=C\c2cc(Cl)ccc2O)nc1 next.
33

====

system: NCI/ADR-RES ovarian; test: NCI-60 one-dose screen, 48 h; details: 10 µM unless noted
Compounds without any hit were thinned out: in the full panel of roughly 83,000, 20% have a hit. Active and inactive are the calls of the source. The calls were made as follows: active = growth percent below 10; inactive = the rest.
A correct response names exactly one class from 1 (yes) for active, 0 (no) for inactive

For this molecule, state the assay outcome: O=c1[nH]c(CN2CCN(c3ccccc3)CC2)nc2c(Br)cc(Br)cc12
0 (no)

// next record COc1cc(NC(=O)c2cncnc2Nc2ccc3c(ccn3Cc3cccc(F)c3)c2)cc(OC)c1
0 (no)

Entry to check: Nc1ncnc2c1N=C(c1ccc([N+](=O)[O-])cc1)CC(c1ccc3c(c1)OCO3)N2 (centres undefined)
0 (no)

For COC12C=C/C(=C(/C(=O)OCc3ccccn3)C(=O)CCCCCCCCC3(OC)C=C/C(=C(/C(=O)OCc4ccccn4)C(=O)CCCCCCCC1)O3)O2 then?
1 (yes)

====

test system: A498 renal; assay: NCI-60 one-dose screen, 48 h (100 = growth as untreated, 0 = no growth, -100 = all killed); settings: 10 µM unless noted
About 83,000 compounds went through this panel and 20% of them were active in at least one assay; those are over-represented in the sample as a whole.
Rule: growth under 30% gives NOT MET, otherwise MET.

Reported growth reaches at least 30% for COc1cc2c(c(OC)c1OC)CCC(c1cccc(NC(=O)c3cccc(Cl)c3)c1)O2 (stereo not drawn) ?
MET

Can you handle CCN1CCN(C(=O)[C@]23CC[C@@H](C)[C@H](C)[C@@H]2C2=CC[C@@H]4[C@@]5(C)C/C(=C/c6ccncc6)C(=O)C(C)(C)[C@@H]5CC[C@@]4(C)[C@]2(C)CC3)CC1 next?
NOT MET

# repeat for O=C1c2c(c3c4cc(F)ccc4oc3c3[nH]c4ccccc4c23)C(=O)N1O
NOT MET

Repeat with CCCN1C(=O)N(CCC)C2C1NC(=S)N2/N=C/C=C/c1ccccc1OC (stereo not drawn)
NOT MET

And for COc1ccc(C2=NN3C(C2)c2cc(Br)ccc2OC3c2ccncc2)cc1 (stereo not drawn) ?
MET

Quick one: CC(=O)c1ccc(Nc2nccc(-c3ccc(Cl)cc3)n2)cc1
NOT MET

Proceed to O=C1C(Nc2ccc(Br)cc2)=C(I)C(=O)c2ncccc21
MET

Next entry: COc1ccc(NC(=O)CSc2oc(-c3ccccc3)nc2S(=O)(=O)c2ccc(Cl)cc2)c(OC)c1
MET

Try this compound next: COc1ccccc1/C=C/C1=C(C)CCC(c2ccccc2OC)C1C (stereo not drawn)
NOT MET

What do you get for O=C(Nc1ncc(Cc2ccccc2Cl)s1)c1ccc2c(c1)OCCO2 ?
NOT MET

Here is the next compound: Cc1ccc(Nc2oc(-c3ccccc3)nc2[P+](c2ccccc2)(c2ccccc2)c2ccccc2)cc1
NOT MET

One more compound: CCOC(=O)c1c(N)sc2cc(O)ccc12
MET

Next up: CN(CCNc1ccc(C(=N)N)cc1)c1ccc(C(=N)N)cc1
MET

What do you have for CC1(C)CC[C@]2(CO)CC[C@]3(C)C(=CC[C@@H]4[C@@]5(C)CCNCC(C)(C)[C@@H]5CC[C@]43C)[C@@H]2C1 ?
MET

What about this compound? CCOC(=O)c1cc(C(=O)c2cc(OC)cc(OC)c2)n2ccccc12
NOT MET

Then this compound: COc1ccc(-n2c(=O)n(-c3ccc(-c4nc5ccc(F)cc5s4)cc3)c(=O)c3cccnc32)cc1
MET

What do we get for O=C(Nc1ccccc1)Nc1ccccc1CNc1nc(Nc2ccc(OCCN3CCCC3)cc2)ncc1Cl ?
MET

Can you check CC1(C)CCC[C@]23C(=O)O[C@](O)(C(=O)C4=C[C@@](C)(/C=C/CCCc5ccc6ccc7cccc8ccc5c6c78)CC[C@@]42O)[C@@H]13 next?
NOT MET

Next entry: O=C1C2C(c3cccs3)C=C(c3ccc(Cl)cc3)N2C(=S)N1c1ccccc1 (stereo not drawn)
MET

Follow-up entry: C[C@@H]1N=C(c2ccc(Cl)cc2Cl)Nc2nc3ccccn3c2C1=O
MET

Moving on to Oc1ccc(C2OCCO2)c2cccnc12
MET

// query: O=c1cc(-c2nccc3c2[nH]c2ccccc23)c2cc(Cl)ccc2o1
MET

Param item: CN(C)CCCN(CCC1CCCCC1)CCC1CCCCC1
MET

Likewise for COc1cccc(C(=O)Nc2cccc(NC(=O)c3ccccn3)c2)c1 ?
MET

One more compound: C=CCNc1nc(O)c(/C=C2\C=Nc3ncccc32)s1
NOT MET

Again, but for C#CCOc1cc(/C=N/Nc2nc(-c3ccc(OC)cc3)cs2)ccc1O
MET

Also need C=C(C)[C@@H]1CCC[C@]2(C(=O)OC)CC[C@]3(C)[C@@H](CC[C@@H]4[C@@]5(C)CCCNC(C)(C)[C@@H]5CC[C@]43C)[C@@H]12 , thanks.
MET

O=C(CN1C(=O)c2ccccc2S1(=O)=O)Nc1nc(-c2cc3ccccc3oc2=O)cs1 ?
MET
